- system_under_test: Tubulin (Homo sapiens) (UniProt P68371+Q9H4B7+P0DPH7+P68366+Q13509+Q71U36+P04350+Q3ZCM7+P07437+P68363+Q9BQE3+Q6PEY2+Q13885+Q9BVA1+Q9BUF5)
- test_description: Induction of GTP-tubulin polymerization
- Type: protein-complex assay
observation_type: ED50 (nM)
Just the number please, in nM, no unit attached.

COc1cccc(C(=O)O[C@H]2[C@@H]3[C@]45CO[C@@H]4C[C@H](O)[C@@]3(C)C(=O)[C@H](OC(C)=O)C3=C(C)[C@H](C[C@]2(O)C3(C)C)OC(=O)[C@H](O)[C@@H](NC(=O)c2ccccc2)c2ccccc2C/C=C/C(=O)O5)c1 220
CC(=O)O[C@H]1C(=O)[C@@]2(C)[C@@H]3[C@H](OC(=O)c4ccccc4)[C@]4(O)C[C@H](OC(=O)[C@H](O)[C@@H](NC(=O)c5ccccc5)c5cccc(c5)CCCCC(=O)O[C@]35CO[C@@H]5C[C@@H]2O)C(C)=C1C4(C)C 1400
C=CC(=O)O[C@@]12CO[C@@H]1C[C@H](O)[C@@]1(C)C(=O)[C@H](OC(C)=O)C3=C(C)[C@@H](OC(=O)[C@H](O)[C@@H](NC(=O)c4ccccc4)c4ccccc4C=C)C[C@@](O)([C@@H](OC(=O)c4ccccc4)[C@H]21)C3(C)C 1400
C=CCCOc1ccccc1[C@H](NC(=O)c1ccccc1)[C@@H](O)C(=O)O[C@H]1C[C@@]2(O)[C@@H](OC(=O)c3ccccc3)[C@@H]3[C@]4(OC(=O)C=C)CO[C@@H]4C[C@H](O)[C@@]3(C)C(=O)[C@H](OC(C)=O)C(=C1C)C2(C)C 2700
C=CCCC(=O)O[C@@]12CO[C@@H]1C[C@H](O)[C@@]1(C)C(=O)[C@H](OC(C)=O)C3=C(C)[C@@H](OC(=O)[C@H](O)[C@@H](NC(=O)c4ccccc4)c4ccccc4OCC=C)C[C@@](O)([C@@H](OC(=O)c4ccccc4)[C@H]21)C3(C)C 420

Task: Report ED50 for "CC(=O)O[C@H]1C(=O)[C@@]2(C)[C@@H]3[C@H](OC(=O)c4ccccc4)[C@]4(O)C[C@H](OC(=O)[C@H](O)[C@@H](NC(=O)c5ccccc5)c5ccccc5OCC/C=C/C(=O)O[C@]35CO[C@@H]5C[C@@H]2O)C(C)=C1C4(C)C" please.
Result: 670

Task: Entry "C=CC(=O)O[C@@]12CO[C@@H]1C[C@H](O)[C@@]1(C)C(=O)[C@H](OC(C)=O)C3=C(C)[C@@H](OC(=O)[C@H](O)[C@@H](NC(=O)c4ccccc4)c4cccc(C=C)c4)C[C@@](O)([C@@H](OC(=O)c4ccccc4)[C@H]21)C3(C)C" has what ED50?
Result: 1000
